# Test: Half life in mouse at 10 mg/kg, po or 1 mg/kg, iv measured upto 24 hrs
# Assay type: ADME, organism-based
# Run Conditions: in vivo
Experimental Readout: half-life (h)
Field format: number, assumed h, no unit text.

Given the compound COc1ncccc1-c1cnn2ccc(N3CCN(C(=O)OC(C)C)CC3)nc12 , write its reported half-life.
3.6

---

# Assay Target: AP2-associated protein kinase 1 (Homo sapiens, UniProt Q2M2I8)
# Sequence (Q2M2I8 whole entry): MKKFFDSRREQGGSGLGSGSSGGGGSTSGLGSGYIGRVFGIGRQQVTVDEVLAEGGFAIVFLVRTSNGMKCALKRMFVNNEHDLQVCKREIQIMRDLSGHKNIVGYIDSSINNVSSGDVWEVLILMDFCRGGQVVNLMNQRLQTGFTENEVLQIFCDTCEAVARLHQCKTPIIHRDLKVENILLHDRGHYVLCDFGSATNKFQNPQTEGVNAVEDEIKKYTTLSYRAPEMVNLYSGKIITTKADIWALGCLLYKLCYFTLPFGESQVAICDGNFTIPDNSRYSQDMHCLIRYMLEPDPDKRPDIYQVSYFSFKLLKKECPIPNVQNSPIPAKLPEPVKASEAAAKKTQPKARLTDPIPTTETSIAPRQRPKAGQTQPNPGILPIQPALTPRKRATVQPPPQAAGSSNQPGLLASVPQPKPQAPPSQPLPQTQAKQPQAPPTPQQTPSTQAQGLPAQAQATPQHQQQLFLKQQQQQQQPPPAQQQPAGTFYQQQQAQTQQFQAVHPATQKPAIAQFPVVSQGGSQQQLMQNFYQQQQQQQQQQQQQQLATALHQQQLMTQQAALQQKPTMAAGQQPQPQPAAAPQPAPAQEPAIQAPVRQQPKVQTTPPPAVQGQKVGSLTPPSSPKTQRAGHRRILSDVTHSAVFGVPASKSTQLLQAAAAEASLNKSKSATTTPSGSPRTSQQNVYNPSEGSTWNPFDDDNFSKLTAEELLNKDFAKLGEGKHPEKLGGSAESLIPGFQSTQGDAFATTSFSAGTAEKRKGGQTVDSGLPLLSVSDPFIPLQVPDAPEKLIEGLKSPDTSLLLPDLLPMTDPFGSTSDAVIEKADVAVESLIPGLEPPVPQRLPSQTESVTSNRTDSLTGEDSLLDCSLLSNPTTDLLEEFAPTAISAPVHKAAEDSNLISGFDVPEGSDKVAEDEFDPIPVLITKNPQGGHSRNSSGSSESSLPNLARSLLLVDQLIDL
# Test: Inhibition of GST-Xa-tagged recombinant human AAK1 using (5-FAM)-Aha-KEEQSQITSQVTGQIGWR-NH2 as substrate assessed as reduction in AP2M1 phosphorylation incubated for 3 hrs in presence of ATP by fluorescence based assay
Experimental Readout: IC50 (nM)
Report the value in nM with no unit label.

Name the recorded IC50 of the molecule listed here: [3H]CC([3H])(C[3H])C([3H])[C@H](N)COc1ccc2c(c1)[nH]c(=O)c1cnccc12 (stereo partly specified)
2.8

---

# Test: Oral bioavailability in mouse at 10 mg/kg measured upto 24 hrs
# Type: ADME, organism-based
# Run Conditions: in vivo
Experimental Readout: bioavailability (%)
Unit % implied. Number only.

For COc1ncccc1-c1cnn2ccc(N3CCN(C(=O)OC(C)C)CC3)nc12 , write its bioavailability.
100
